- TARGET UNDER TEST: T1, human leptin receptor (Hu ObR), recombinant extracellular domain (human, UniProt P48357 22-839)
- T1 construct: extracellular domain; Recombinant Fc fusion (R&D Systems) or His-tagged (Sino Biologicals)
- T1 sequence (looked up): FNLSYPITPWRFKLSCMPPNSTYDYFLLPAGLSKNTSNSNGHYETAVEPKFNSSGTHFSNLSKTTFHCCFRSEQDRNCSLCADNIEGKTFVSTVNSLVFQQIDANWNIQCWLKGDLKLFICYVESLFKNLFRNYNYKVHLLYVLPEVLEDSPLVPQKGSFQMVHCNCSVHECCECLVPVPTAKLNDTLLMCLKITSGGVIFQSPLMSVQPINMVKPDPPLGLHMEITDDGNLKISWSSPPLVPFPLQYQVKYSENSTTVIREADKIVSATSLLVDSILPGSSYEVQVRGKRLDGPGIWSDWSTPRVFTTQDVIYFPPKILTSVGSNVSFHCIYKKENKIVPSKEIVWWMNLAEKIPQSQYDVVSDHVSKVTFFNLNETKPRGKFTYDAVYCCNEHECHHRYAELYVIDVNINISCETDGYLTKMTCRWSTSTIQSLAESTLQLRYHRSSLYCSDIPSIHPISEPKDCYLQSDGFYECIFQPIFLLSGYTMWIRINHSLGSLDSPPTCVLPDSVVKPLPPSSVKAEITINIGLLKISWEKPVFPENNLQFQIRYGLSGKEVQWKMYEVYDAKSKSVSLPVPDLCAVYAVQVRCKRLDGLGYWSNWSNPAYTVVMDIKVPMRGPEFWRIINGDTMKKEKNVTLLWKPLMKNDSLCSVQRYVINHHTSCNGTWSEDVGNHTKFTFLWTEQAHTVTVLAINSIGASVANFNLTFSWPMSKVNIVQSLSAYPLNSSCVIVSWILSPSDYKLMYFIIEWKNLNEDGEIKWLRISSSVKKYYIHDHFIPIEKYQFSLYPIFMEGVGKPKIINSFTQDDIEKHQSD
- ASSAY OVERVIEW: phage selection and phage ELISA on coated receptor ECD
QUANTITY: binding result

Some entries whose results are on file:
GGVCWQGMMLFFVGEKCRRDSDCPGACICRGNGYCGSGSD (designed binder) [CYC5] : binds
GGVCGWFYWYHKWFGPCRRDSDCPGACICRGNGYCGSGSD (designed binder) [CYC6] : binds
GGVCQSFFWWHSWFGVCRRDSDCPGACICRGNGYCGSGSD (designed binder) [CYC2] : binds
GGVCFLWFWYGFSRTLCRRDSDCPGACICRGNGYCGSGSD (designed binder) [CYC14] : binds
GGVCEWSDWFPYEFLFCRRDSDCPGACICRGNGYCGSGSD (designed binder) [CYC12] : binds

--- query ---
Q: So what does the record say about binding result for GGVCPWPKWTYMAQKYCRRDSDCPGACICRGNGYCGSGSD (designed binder) [CYC1] ?
A: binds
